Value source: the pKa sets of Baltruschat and Czodrowski (2020)

Assignment: determine reported pKa for the given compounds.
Numbers only.

Below are worked cases with known answers.
compound	experimental_result
CN(C)CCCN1c2cc(F)ccc2CCc2ccc(F)cc21.Cl	7.6
CS(=O)(=O)Nc1cccc(Nc2c3ccccc3nc3ccccc23)c1	6.85
CNC(=O)c1cccc2c(Nc3ccc(NS(C)(=O)=O)cc3OC)c3cccc(C)c3nc12	6.4
NC(=O)Cc1ccc(Nc2c3ccccc3nc3ccccc23)cc1	7.43
Nc1ncc[nH]1	8.46

Kindly give each listed record's pKa.
1. CNC(=C[N+](=O)[O-])NCCSCc1ccc(CN(C)C)o1
2. c1nnn[nH]1

1. 8.47
2. -3

Kindly give each listed record's pKa.
1. Clc1cc(Br)cc(Cl)c1N=C1NCCN1
2. COc1ccnc(C[S+]([O-])c2nc3cc(OC(F)F)ccc3[n-]2)c1OC.[Na+] (configuration not stated)
3. Cc1nc2c3c(c(C(=O)N(C)C)cn2c1C)CCC(c1ccccc1)O3 (configuration not stated)
4. N[C@@H](CS)C(=O)O
5. Cl.O=C(c1ccc(CN2CCOCC2)cc1)N1CCN(C2CC2)CC1

[7.72, 3.9, 7.15, 8.3, 5.3]

====

Tag: met if measured pKa is not below 10, not met if it is.

Known results for compounds:
compound	class
CC(=O)N1CCN(c2ccc(OCC3COC(Cn4ccnc4)(c4ccc(Cl)cc4Cl)O3)cc2)CC1 (stereo unspecified)	not met
Oc1cc(C2CCNCC2)sn1	met
COC(=O)C1=C(C)NC(C)=C(C(=O)OCCN(C)Cc2ccccc2)C1c1cccc([N+](=O)[O-])c1 (stereo unspecified)	not met
Cc1nc(N)ncc1CNC(=O)Cn1c(C)ccc(NS(=O)(=O)Cc2ccccc2)c1=O	not met
CC(C)NCC(O)COc1ccc(COCCOC(C)C)cc1 (stereo unspecified)	not met

Next:
Is reported pKa greater than or equal to 10 here: NC(=O)CF met

====

Assignment: determine reported pKa for the given compounds.
Give bare numbers.

Below are worked cases with known answers.
compound	pKa
CCOC(=O)C1(c2ccccc2)CCN(C)CC1	8.7
CS(=O)(=O)Nc1ccc(Nc2c3ccccc3nc3cc(N=[N+]=[N-])ccc23)cc1	7
O=C(O)c1coc2ccccc2c1=O	8.85
Cl.Cl.NCCS	9.11
CCN(CC)C(=O)[C@@H]1C=C2c3cccc4[nH]cc(c34)C[C@H]2N(C)C1	7.8
CCCCNCc1ccc(C(=O)c2csc(S(N)(=O)=O)c2)cc1.Cl	8.12

Kindly give each listed record's pKa.
1. N[C@H]1C[C@@H]1c1ccccc1
2. CCCCCOC(=O)c1ccc(OS(N)(=O)=O)cc1
3. Cc1nc2c(/C=C/c3ccccc3)cccn2c1C
4. CNc1ncnc2c1ncn2Cc1ccccc1F

8.5
8.47
7.2
3.88

Kindly give each listed record's pKa.
1. Cc1nc(N)ncc1CNC(=O)Cn1c(C)cnc(NCC(F)(F)c2ccccc2)c1=O
2. CNc1ccc(Nc2c3ccccc3nc3ccccc23)cc1
3. CN(C)C(=O)C1C2c3ccccc3C(c3ccccc32)C1C(=O)N(C)C (stereo not drawn)
4. COc1cc(NS(C)(=O)=O)ccc1Nc1c2ccccc2nc2cc([N+](=O)[O-])ccc12

1: 4.2; 2: 8.42; 3: -1.34; 4: 5.72

====

observation_type: pKa
Answers are plain numbers.

Below are worked cases with known answers.
compound	experimental_result
CSc1nc(N)c2ncn([C@@H]3O[C@H](COP(=O)(O)OP(=O)(O)CP(=O)(O)O)[C@@H](O)[C@H]3O)c2n1	8.4
Nc1ccccc1Nc1c2ccccc2nc2ccccc12	7.87
CS(=O)(=O)[O-].NC(=O)CCc1ccc(Nc2c3ccccc3[nH+]c3ccccc23)cc1	7.63
O=C(c1ccc(Cl)cc1)c1ccc(OC2CN3CCC2CC3)cc1 (stereo not given)	9.1

Kindly give each listed record's pKa.
1. COC(=O)c1ccc(OS(N)(=O)=O)cc1
2. NC(N)=S
3. COc1cccc2c(Nc3ccc(NS(C)(=O)=O)cc3)c3ccccc3nc12
4. Clc1cccc(N=C2NCCN2)c1Cl

8.28
21.1
7.15
8.55
